Target: T1, human IGF2^1-67 (mature insulin-like growth factor 2) (human, UniProt P01344 25-91, biotinylated (site not stated) where immobilised on the chip (Tables 1-4))
T1 construct: mature; also called mature IGF2; biotinylated IGF2
T1 sequence (P01344 25-91): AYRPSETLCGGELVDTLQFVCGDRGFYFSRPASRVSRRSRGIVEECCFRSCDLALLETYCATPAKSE
Assay: SPR kinetic, biotin-IGF2 on chip, pH 7.4
Procedure: Final kinetic analysis of mutants by SPR was conducted using a Biacore T200 biosensor at 25° C. in either HBS-EP (10 mM HEPES pH 7.4, 150 mM NaCl, 3 mM EDTA, and 0.005% (v/v) surfactant P20) or MES-EP (20 mM MES pH 6.5, 150 mM NaCl, 3 mM EDTA, and 0.005% (v/v) surfactant P20) at a flow-rate of 40 μL min⁻¹. […] Steady state affinities were determined using the kinetic data, taking the response average at 5 seconds before injection end and for 5 seconds average. […]
observed-property: koff (s⁻¹)
Field format: number, assumed s⁻¹, no unit text.

Record summary for domain 11^AB5 Q1569R P1597H S1602H (receptor, See m5) MKSNEHDDCQVTNPSTGHLFDLSSLSGRAGFTAAYAKGWGVYMSICGENENCPPGVGACFGRTRISVGKANKRLRYVDQVLQLVYKDGSHCPSKHGLSYKSVISFVCRPEAGPTNRPMLISLDKQTCTLFFSWHTPLACEQATECSV : reported koff = 0.0038

Record summary for domain 11^AB3 Q1569R P1597H (receptor, See m5) MKSNEHDDCQVTNPSTGHLFDLSSLSGRAGFTAAYSKSGVVYMSICGENENCPPGVGACFGRTRISVGKANKRLRYVDQVLQLVYKDGSHCPSKSGLSYKSVISFVCRPEAGPTNRPMLISLDKQTCTLFFSWHTPLACEQATECSV : reported koff = 0.0153

Record summary for domain 11^AB5 P1597N (receptor, See m5) MKSNEHDDCQVTNPSTGHLFDLSSLSGRAGFTAAYAKGWGVYMSICGENENCPPGVGACFGQTRISVGKANKRLRYVDQVLQLVYKDGSNCPSKSGLSYKSVISFVCRPEAGPTNRPMLISLDKQTCTLFFSWHTPLACEQATECSV : reported koff = 0.018

Record summary for domain 11^AB3 Q1569R (receptor, See m5; also called AB3 + 73E (CD-Q1569R)) MKSNEHDDCQVTNPSTGHLFDLSSLSGRAGFTAAYSKSGVVYMSICGENENCPPGVGACFGRTRISVGKANKRLRYVDQVLQLVYKDGSPCPSKSGLSYKSVISFVCRPEAGPTNRPMLISLDKQTCTLFFSWHTPLACEQATECSV : reported koff = 0.031

Record summary for domain 11^AB3 P1597K (receptor, See m5) MKSNEHDDCQVTNPSTGHLFDLSSLSGRAGFTAAYSKSGVVYMSICGENENCPPGVGACFGQTRISVGKANKRLRYVDQVLQLVYKDGSKCPSKSGLSYKSVISFVCRPEAGPTNRPMLISLDKQTCTLFFSWHTPLACEQATECSV : reported koff = 0.0287

Record summary for domain 11^AB5 Q1569R P1597K S1602H (receptor, See m5) MKSNEHDDCQVTNPSTGHLFDLSSLSGRAGFTAAYAKGWGVYMSICGENENCPPGVGACFGRTRISVGKANKRLRYVDQVLQLVYKDGSKCPSKHGLSYKSVISFVCRPEAGPTNRPMLISLDKQTCTLFFSWHTPLACEQATECSV : reported koff = 0.0073

Record summary for domain 11^AB5 P1597K (receptor, See m5) MKSNEHDDCQVTNPSTGHLFDLSSLSGRAGFTAAYAKGWGVYMSICGENENCPPGVGACFGQTRISVGKANKRLRYVDQVLQLVYKDGSKCPSKSGLSYKSVISFVCRPEAGPTNRPMLISLDKQTCTLFFSWHTPLACEQATECSV : reported koff = 0.012
